- experimental system: disulfide stabilized HIV-1NL4-3 CA hexamer (Human immunodeficiency virus type 1 group M subtype B, UniProt P12493, A146C/E177C/M317A/W316A)
- method notes: SPR direct interaction analysis with immobilized CA hexamer
- Assay type: binding
- condition: enantiomerically pure compounds
property name: binding to CA hexamer via SPR (in words)

molecule=Cc1[nH]c2ccccc2c1CC(=O)N[C@@H](Cc1ccccc1)C(=O)N(C)c1ccc2[nH]ncc2c1 reported_value="robust binding"
molecule="Cc1[nH]c2ccccc2c1CC(=O)N[C@@H](Cc1ccccc1)C(=O)N(C)c1ccccc1 [S-PF-74, reference compound]" reported_value="robust binding"
molecule=CN(C(=O)[C@H](Cc1ccccc1)NC(=O)Cc1n[nH]c2c(N)cccc12)c1ccc2[nH]ncc2c1 reported_value="robust binding"

###

- experimental system: disulfide stabilized HIV-1NL4-3 CA hexamer (Human immunodeficiency virus type 1 group M subtype B, UniProt P12493, A146C/E177C/M317A/W316A)
- method notes: SPR direct interaction analysis with immobilized CA hexamer
- Assay type: binding
- condition: enantiomerically pure compounds; SPR, 25 °C, 1:1 binding model
property name: kd

Q. Could you tell me which kd is on file for CN(C(=O)[C@H](Cc1ccccc1)NC(=O)Cc1c[nH]c2c(N)cccc12)c1ccccc1 ?
A. 6.60 ± 0.328 × 10^−2 s^−1

Q. Same again, this time with Cc1[nH]c2ccccc2c1CC(=O)N[C@@H](Cc1ccccc1)C(=O)N(C)c1ccccc1 [S-PF-74, reference compound]
A. 2.92 ± 0.111 × 10^−2 s^−1

Q. Try this compound too: Cc1[nH]c2ccccc2c1CC(=O)N[C@@H](Cc1ccccc1)C(=O)N(C)c1ccc2[nH]ncc2c1
A. 1.09 ± 0.043 × 10^−2 s^−1

Q. Moving on to CN(C(=O)[C@H](Cc1ccccc1)NC(=O)Cc1n[nH]c2c(N)cccc12)c1ccc2[nH]ncc2c1
A. 9.66 ± 0.145 × 10^−2 s^−1
